The origin of these recorded values is patent US4482553A.

# Test system: H. influ.
# measurementNotes: standard in vitro agar dilution MIC (Table I), H. influ.
# Type: cell-based
# experimentalContext: strain 76, read-out: MIC
Recorded MIC, one value per entry.
Supply the numeric figure in µg/mL, leaving out any unit text.

>  <compound>
CC1=C(C(=O)O)N2C(=O)C(NC(=O)[C@@H](N)c3cc4c(Cl)cccc4s3)C2SC1 (some centres unmarked) [Ex. 7B]

>  <recordedMetric>
MIC

>  <readoutUnit>
µg/mL

>  <recordedMeasurement>
4

$$$$
>  <compound>
COc1c([C@H](N)C(=O)NC2C(=O)N3C(C(=O)O)=C(C)CSC23)sc2ccccc12 (some centres unmarked) [Ex. 9B]

>  <recordedMetric>
MIC

>  <readoutUnit>
µg/mL

>  <recordedMeasurement>
64

$$$$
>  <compound>
CC1=C(C(=O)O)N2C(=O)C(NC(=O)[C@H](N)c3cc4cc(Cl)ccc4s3)C2SC1 (some centres unmarked) [Ex. 2]

>  <recordedMetric>
MIC

>  <readoutUnit>
µg/mL

>  <recordedMeasurement>
0.5

$$$$
>  <compound>
COc1c([C@@H](N)C(=O)NC2C(=O)N3C(C(=O)O)=C(C)CSC23)sc2ccccc12 (some centres unmarked) [Ex. 9A]

>  <recordedMetric>
MIC

>  <readoutUnit>
µg/mL

>  <recordedMeasurement>
32

$$$$

Data request: Annotate the compound CC1=C(C(=O)O)N2C(=O)C(NC(=O)[C@H](N)c3cc4c(Cl)cccc4s3)C2SC1 (some centres unmarked) [Ex. 7A] with its measured MIC.
Data returned: 4

====

# System: Strep. PN
# measurementNotes: standard in vitro agar dilution MIC (Table I), Strep. PN
# Assay type: cell-based
# experimentalContext: strain PARK, read-out: MIC
recordedMetric: MIC
Answer with the number, then the unit.

Examples with their reported MIC follow.
>  <compound>
CC1=C(C(=O)O)N2C(=O)[C@@H](NC(=O)[C@H](N)c3ccccc3)[C@H]2SC1 [Cephalexin, reference compound]

>  <MIC>
2 µg/mL

$$$$
>  <compound>
CC1=C(C(=O)O)N2C(=O)C(NC(=O)[C@H](N)c3cc4cc(Cl)ccc4s3)C2SC1 (stereo partly drawn)

>  <MIC>
0.5 µg/mL

$$$$
>  <compound>
CC1=C(C(=O)O)N2C(=O)C(NC(=O)[C@H](N)c3cc4c(Cl)cccc4s3)C2SC1 (stereo partly drawn)

>  <MIC>
0.5 µg/mL

$$$$
>  <compound>
CC1=C(C(=O)O)N2C(=O)C(NC(=O)[C@@H](N)c3cc4c(Cl)cccc4s3)C2SC1 (stereo partly drawn)

>  <MIC>
2 µg/mL

$$$$

Data request: Annotate the compound COc1c([C@@H](N)C(=O)NC2C(=O)N3C(C(=O)O)=C(C)CSC23)sc2ccccc12 (stereo partly drawn) with its measured MIC.
Data returned: 4 µg/mL

Data request: Annotate the compound COc1c([C@H](N)C(=O)NC2C(=O)N3C(C(=O)O)=C(C)CSC23)sc2ccccc12 (stereo partly drawn) with its measured MIC.
Data returned: 32 µg/mL

====

# Tested on: E. coli
# measurementNotes: standard in vitro agar dilution MIC (Table I), E. coli
# Assay type: cell-based
# experimentalContext: Escherichia coli, strain N10
recordedMetric: MIC

Examples with their reported MIC follow.
>  <compound>
COc1c([C@H](N)C(=O)NC2C(=O)N3C(C(=O)O)=C(C)CSC23)sc2ccccc12 (some centres unmarked)

>  <recordedMetric>
MIC

>  <recordedMeasurement>
> 128 µg/mL

$$$$
>  <compound>
CC1=C(C(=O)O)N2C(=O)C(NC(=O)[C@@H](N)c3cc4c(Cl)cccc4s3)C2SC1 (some centres unmarked)

>  <recordedMetric>
MIC

>  <recordedMeasurement>
> 128 µg/mL

$$$$
>  <compound>
CC1=C(C(=O)O)N2C(=O)C(NC(=O)[C@H](N)c3cc4c(Cl)cccc4s3)C2SC1 (some centres unmarked)

>  <recordedMetric>
MIC

>  <recordedMeasurement>
> 128 µg/mL

$$$$
>  <compound>
CC1(C)S[C@@H]2[C@H](NC(=O)[C@H](N)c3ccccc3)C(=O)N2[C@H]1C(=O)O [Ampicillin, reference compound]

>  <recordedMetric>
MIC

>  <recordedMeasurement>
8 µg/mL

$$$$

Pending compound:
Data request: Annotate the compound COc1c([C@@H](N)C(=O)NC2C(=O)N3C(C(=O)O)=C(C)CSC23)sc2ccccc12 (some centres unmarked) with its measured MIC.
Data returned: > 128 µg/mL

====

Recorded MIC, one value per entry.
# Tested on: Staph. aureus
# measurementNotes: standard in vitro agar dilution MIC (Table I), Staph. aureus
# Type: cell-based
# experimentalContext: Staphylococcus aureus, strain X400, read-out: MIC
Supply the numeric figure in µg/mL, leaving out any unit text.

Data request: Annotate the compound CC1=C(C(=O)O)N2C(=O)C(NC(=O)[C@H](N)c3cc4cc(Cl)ccc4s3)C2SC1 (some centres unmarked) with its measured MIC.
Data returned: 64

Data request: Annotate the compound CC1=C(C(=O)O)N2C(=O)C(NC(=O)[C@@H](N)c3cc4c(Cl)cccc4s3)C2SC1 (some centres unmarked) with its measured MIC.
Data returned: 128

Data request: Annotate the compound CC1=C(C(=O)O)N2C(=O)C(NC(=O)[C@H](N)c3cc4c(Cl)cccc4s3)C2SC1 (some centres unmarked) with its measured MIC.
Data returned: 32

====

Recorded MIC, one value per entry.
# Test system: E. coli
# measurementNotes: standard in vitro agar dilution MIC (Table I), E. coli
# Assay type: cell-based
# experimentalContext: Escherichia coli, strain TEM

Examples with their reported MIC follow.
>  <molecule>
CC1=C(C(=O)O)N2C(=O)C(NC(=O)[C@H](N)c3cc4c(Cl)cccc4s3)C2SC1 (stereo partly shown)

>  <MIC>
> 128 mg/L

$$$$
>  <molecule>
CC1=C(C(=O)O)N2C(=O)C(NC(=O)[C@@H](N)c3cc4c(Cl)cccc4s3)C2SC1 (stereo partly shown)

>  <MIC>
> 128 mg/L

$$$$
>  <molecule>
COc1c([C@@H](N)C(=O)NC2C(=O)N3C(C(=O)O)=C(C)CSC23)sc2ccccc12 (stereo partly shown)

>  <MIC>
> 128 mg/L

$$$$

Data request: Annotate the molecule COc1c([C@H](N)C(=O)NC2C(=O)N3C(C(=O)O)=C(C)CSC23)sc2ccccc12 (stereo partly shown) with its measured MIC.
Data returned: > 128 mg/L

====

# System: Staph. epi
# measurementNotes: standard in vitro agar dilution MIC (Table I), Staph. epi
# Format: cell-based
# experimentalContext: Table I, agar dilution, strain 222; read-out: MIC
recordedMetric: MIC (µg/mL)
Supply the numeric figure in µg/mL, leaving out any unit text.

>  <compound>
COc1c([C@@H](N)C(=O)NC2C(=O)N3C(C(=O)O)=C(C)CSC23)sc2ccccc12 (some centres unmarked)

>  <MIC, µg/mL>
8

$$$$

Pending compound:
Data request: Annotate the compound CC1=C(C(=O)O)N2C(=O)C(NC(=O)[C@@H](N)c3cc4c(Cl)cccc4s3)C2SC1 (some centres unmarked) with its measured MIC.
Data returned: 4

====

# System: Strep. A
# measurementNotes: standard in vitro agar dilution MIC (Table I), Strep. A
# Type: cell-based
# experimentalContext: Table I, agar dilution, strain C203; read-out: MIC
Recorded MIC, one value per entry.
Supply the numeric figure in mg/L, leaving out any unit text.

Examples with their reported MIC follow.
>  <compound>
CC1=C(C(=O)O)N2C(=O)C(NC(=O)[C@@H](N)c3cc4c(Cl)cccc4s3)C2SC1 (some centres unmarked) [Ex. 7B]

>  <assayedTarget>
Strep. A

>  <MIC, mg/L>
0.5

$$$$
>  <compound>
COc1c([C@H](N)C(=O)NC2C(=O)N3C(C(=O)O)=C(C)CSC23)sc2ccccc12 (some centres unmarked) [Ex. 9B]

>  <assayedTarget>
Strep. A

>  <MIC, mg/L>
4

$$$$
>  <compound>
COc1c([C@@H](N)C(=O)NC2C(=O)N3C(C(=O)O)=C(C)CSC23)sc2ccccc12 (some centres unmarked) [Ex. 9A]

>  <assayedTarget>
Strep. A

>  <MIC, mg/L>
1

$$$$
>  <compound>
CC1=C(C(=O)O)N2C(=O)C(NC(=O)[C@H](N)c3cc4c(Cl)cccc4s3)C2SC1 (some centres unmarked) [Ex. 7A]

>  <assayedTarget>
Strep. A

>  <MIC, mg/L>
0.25

$$$$

Pending compound:
Data request: Annotate the compound CC1=C(C(=O)O)N2C(=O)C(NC(=O)[C@H](N)c3cc4cc(Cl)ccc4s3)C2SC1 (some centres unmarked) [Ex. 2] with its measured MIC.
Data returned: 0.125

====

# System: Staph. epi
# measurementNotes: standard in vitro agar dilution MIC (Table I), Staph. epi
# Type: cell-based
# experimentalContext: Table I, agar dilution, strain 222; read-out: MIC
Recorded MIC, one value per entry.
Answer with the number, then the unit.

Examples with their reported MIC follow.
>  <molecule>
CC1=C(C(=O)O)N2C(=O)C(NC(=O)[C@H](N)c3cc4c(Cl)cccc4s3)C2SC1 (stereo partly drawn)

>  <recordedMeasurement>
1 µg/mL

$$$$
>  <molecule>
COc1c([C@H](N)C(=O)NC2C(=O)N3C(C(=O)O)=C(C)CSC23)sc2ccccc12 (stereo partly drawn)

>  <recordedMeasurement>
32 µg/mL

$$$$

Data request: Annotate the molecule CC1=C(C(=O)O)N2C(=O)C(NC(=O)[C@H](N)c3cc4cc(Cl)ccc4s3)C2SC1 (stereo partly drawn) with its measured MIC.
Data returned: 1 µg/mL
